molecular target: CV S-protein construct 6 trimer TP31001F (SARS-CoV-2, UniProt P0DTC2 14-1208); assay: SPR
Below is a list of entries, each paired with its recorded Kd value.
Numeric only. Scale: nM

>>> reported("variant 5-17 (Fc fusion) VHH: EVQLVESGGGLVQPGGSLRLSCAASGPTFSIYAMGWFRQAPGKEREFVAGIRWSDVYTQYADSVKGRFTISADNSKNTAYLQMNSLKPEDTAVYYCALDIDYRDWGQGTLVTVSS")
18.9

Task: # query: Kd of entry variant 6-103 (Fc fusion) VHH: EVQLVESGGGLVQPGGSLRLSCAASGRTSSPIAMGWFRQAPGKEREPVAVRWSDDYTYYADSVKGRFTISADNSKNTAYLQMNSLKPEDTAVYYCAKKLGGYYAFDIWGQGTLVTVSS
Result: 1
